Measured t1/2 by item
tested.system: T1, human GFRα3 expressed with a C-terminal mFc tag (human)
T1 construct: also called hGFRα3-mFc
T1 chain: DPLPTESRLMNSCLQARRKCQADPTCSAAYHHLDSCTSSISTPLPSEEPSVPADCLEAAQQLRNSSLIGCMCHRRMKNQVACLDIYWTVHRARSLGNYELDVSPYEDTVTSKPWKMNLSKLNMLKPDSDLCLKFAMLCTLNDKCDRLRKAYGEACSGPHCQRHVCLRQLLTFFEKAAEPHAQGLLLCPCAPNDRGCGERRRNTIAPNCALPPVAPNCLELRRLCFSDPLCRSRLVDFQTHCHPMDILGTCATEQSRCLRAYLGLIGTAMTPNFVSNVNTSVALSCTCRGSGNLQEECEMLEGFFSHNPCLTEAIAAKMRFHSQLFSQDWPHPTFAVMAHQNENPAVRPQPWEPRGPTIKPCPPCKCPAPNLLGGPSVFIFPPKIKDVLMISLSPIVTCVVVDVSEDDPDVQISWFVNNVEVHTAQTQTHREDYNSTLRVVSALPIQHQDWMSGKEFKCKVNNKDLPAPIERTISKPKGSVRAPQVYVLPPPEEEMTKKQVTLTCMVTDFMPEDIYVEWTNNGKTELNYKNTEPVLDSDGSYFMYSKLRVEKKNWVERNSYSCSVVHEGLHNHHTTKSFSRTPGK
method.summary: SPR, Ab captured, 37C
endpoint: t1/2 (h)

INSERT INTO assay_data (binder, endpoint, measurement) VALUES
  ('H4H2342P (antibody, human IgG4, V domains shown, human IgG4 Fc (H4H)) VH: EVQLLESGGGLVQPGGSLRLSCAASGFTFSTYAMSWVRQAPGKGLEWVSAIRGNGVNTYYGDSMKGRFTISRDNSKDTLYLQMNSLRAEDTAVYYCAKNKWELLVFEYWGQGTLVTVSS VL: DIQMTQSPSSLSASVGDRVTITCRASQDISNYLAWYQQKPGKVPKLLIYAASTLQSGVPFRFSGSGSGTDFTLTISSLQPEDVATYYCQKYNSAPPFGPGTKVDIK', 't1/2', 4.5),
  ('H4H2344S (antibody, human IgG4, V domains shown, human IgG4 Fc (H4H)) VH: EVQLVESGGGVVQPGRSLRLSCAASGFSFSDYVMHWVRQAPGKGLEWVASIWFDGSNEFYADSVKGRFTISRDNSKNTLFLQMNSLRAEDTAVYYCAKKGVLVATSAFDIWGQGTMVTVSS VL: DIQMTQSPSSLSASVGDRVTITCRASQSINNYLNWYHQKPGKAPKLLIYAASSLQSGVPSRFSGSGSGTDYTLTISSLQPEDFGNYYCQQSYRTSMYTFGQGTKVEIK', 't1/2', 2.15),
  ('H4H2291S (antibody, human IgG4, V domains shown, human IgG4 Fc (H4H)) VH: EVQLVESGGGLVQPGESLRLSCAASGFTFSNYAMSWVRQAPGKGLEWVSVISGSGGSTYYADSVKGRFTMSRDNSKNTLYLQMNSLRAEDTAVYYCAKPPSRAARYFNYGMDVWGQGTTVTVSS VL: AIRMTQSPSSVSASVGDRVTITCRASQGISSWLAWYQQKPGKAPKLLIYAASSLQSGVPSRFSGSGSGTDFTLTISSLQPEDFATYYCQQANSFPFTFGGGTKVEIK', 't1/2', 5.02),
  ('H4H2346S (antibody, human IgG4, V domains shown, human IgG4 Fc (H4H)) VH: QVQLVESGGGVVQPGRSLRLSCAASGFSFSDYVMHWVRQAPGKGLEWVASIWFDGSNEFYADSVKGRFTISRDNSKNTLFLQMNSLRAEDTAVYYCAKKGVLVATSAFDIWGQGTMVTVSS VL: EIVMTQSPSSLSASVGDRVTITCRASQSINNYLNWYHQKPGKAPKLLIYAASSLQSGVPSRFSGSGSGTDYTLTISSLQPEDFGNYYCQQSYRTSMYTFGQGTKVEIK', 't1/2', 1.4),
  ('H4H2352S (antibody, human IgG4, V domains shown, human IgG4 Fc (H4H); also called H4H2352S-1) VH: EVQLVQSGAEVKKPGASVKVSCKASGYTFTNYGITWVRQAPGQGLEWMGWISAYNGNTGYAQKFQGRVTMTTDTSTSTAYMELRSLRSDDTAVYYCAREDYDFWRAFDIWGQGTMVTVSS VL: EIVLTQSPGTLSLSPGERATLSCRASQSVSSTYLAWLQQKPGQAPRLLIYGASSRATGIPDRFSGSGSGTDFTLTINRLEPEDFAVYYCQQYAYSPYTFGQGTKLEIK', 't1/2', 6.42);
